measurement-target: hERG (Homo sapiens)
Sequence (Q12809 whole entry): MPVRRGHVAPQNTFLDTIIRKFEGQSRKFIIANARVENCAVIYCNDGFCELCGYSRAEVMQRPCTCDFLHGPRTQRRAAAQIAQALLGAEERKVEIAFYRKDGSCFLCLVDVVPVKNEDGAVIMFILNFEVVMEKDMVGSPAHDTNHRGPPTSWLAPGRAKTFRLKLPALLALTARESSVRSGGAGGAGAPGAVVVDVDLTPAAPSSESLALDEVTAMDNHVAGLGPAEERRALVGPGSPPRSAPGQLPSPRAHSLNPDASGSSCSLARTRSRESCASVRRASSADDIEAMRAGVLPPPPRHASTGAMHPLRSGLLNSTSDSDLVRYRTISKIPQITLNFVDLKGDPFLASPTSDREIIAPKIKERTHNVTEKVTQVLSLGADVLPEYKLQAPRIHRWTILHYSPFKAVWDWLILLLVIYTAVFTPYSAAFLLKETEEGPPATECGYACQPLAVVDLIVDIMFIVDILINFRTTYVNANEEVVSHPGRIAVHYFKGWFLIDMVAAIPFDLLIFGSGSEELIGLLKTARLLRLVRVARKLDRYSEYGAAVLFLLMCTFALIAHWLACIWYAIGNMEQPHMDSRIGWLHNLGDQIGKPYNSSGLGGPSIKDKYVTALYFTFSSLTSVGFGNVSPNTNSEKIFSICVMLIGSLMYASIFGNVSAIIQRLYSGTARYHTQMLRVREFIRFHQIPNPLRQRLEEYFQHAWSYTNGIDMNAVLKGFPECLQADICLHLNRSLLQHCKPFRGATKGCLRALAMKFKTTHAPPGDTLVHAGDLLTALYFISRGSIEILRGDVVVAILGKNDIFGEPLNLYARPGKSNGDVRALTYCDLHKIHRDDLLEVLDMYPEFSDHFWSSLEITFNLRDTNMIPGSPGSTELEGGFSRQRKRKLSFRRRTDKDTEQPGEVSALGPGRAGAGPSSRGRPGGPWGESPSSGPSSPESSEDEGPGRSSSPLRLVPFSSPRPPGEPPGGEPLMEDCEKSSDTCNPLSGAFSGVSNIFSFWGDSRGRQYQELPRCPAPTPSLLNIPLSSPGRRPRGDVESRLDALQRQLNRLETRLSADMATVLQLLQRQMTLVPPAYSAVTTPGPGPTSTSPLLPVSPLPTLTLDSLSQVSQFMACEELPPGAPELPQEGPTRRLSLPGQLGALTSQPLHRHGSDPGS
experimental-details: hERG: inhibition of binding of [3H]astemizole to HEK-293 cells expressing human recombinant hERG
measured-metric: IC50 (µM)
I only need the number, in µM, no unit after it.

Task: Assign IC50 to the following record: Cc1ccc(-c2nnc(N)nc2-c2ccc(C)cc2)cc1 [CEN-126]
Result: 3

Task: Assign IC50 to the following record: Cn1nc(-c2cccc(-c3ccccc3)c2)c(N)nc1=N [CEN-161]
Result: 1

Task: Assign IC50 to the following record: Nc1nnc(-c2cccc3c2-c2ccccc2C3)c(N)n1 [CEN-129]
Result: 133

Task: Assign IC50 to the following record: Cn1nc(-c2ccc3c(c2)OC(F)(F)O3)c(N)nc1=N [CEN-81]
Result: 49

Numbers sourced from patent US8691818B2.
